system: A549; test: NCI tumour cell line growth inhibition, 48 h
Activity calls are given as the source filed them. Rule as the data show it: active = GI50 up to about 1.1 µM and inactive = higher.
property-measured: GI50

>>> endpoint_result("CCCCCCOc1ccc(C(=O)NOCc2ccccc2)cc1")
"> 100 µM (inactive)"
>>> endpoint_result("CCCCNC(=S)N/C=C1\\C(=O)Oc2ccccc2C1=O")
"> 100 µM (inactive)"
>>> endpoint_result("O=C1CCCSCCCC(=O)CCCSCCC1")
"> 100 µM (inactive)"
>>> endpoint_result("CC(C)=CCC12Cc3ccc(O)cc3C(C(C)CN1)C2C (stereo not given)")
"> 100 µM (inactive)"
>>> endpoint_result("O=C(CC(C(=O)c1ccco1)c1ccsc1)c1ccco1 (stereo not given)")
"28.8 µM (inactive)"
>>> endpoint_result("Oc1ccc2ccccc2c1/C=C/c1ccc2c(Br)cc(Br)c(O)c2n1")
"4.74 µM (inactive)"
>>> endpoint_result("COc1ccccc1/C=C\\c1cc(OC)c(OC)c(OC)c1")
"6.08 µM (inactive)"
>>> endpoint_result("CC(C)CNC(=O)O")
"> 100 µM (inactive)"
>>> endpoint_result("COc1ccc(C2CCc3cc4c(cc3/C2=N/OC(C)=O)OCO4)cc1OC (stereo not given)")
"18.3 µM (inactive)"
>>> endpoint_result("CN1C(=O)c2c(c3c4ccccc4n(C)c3c3c2c2ccccc2n3C)C1=O")
"> 100 µM (inactive)"

## Task Query the reported GI50 for A549; item: O=C1c2ccccc2NC2C(O)c3ccccc3N12 (stereo not given)
## Result 10.9 µM (inactive)

## Task And for Cn1cnc(N2CCCC2)c(C#N)c1=O ?
## Result > 100 µM (inactive)

## Task Try this molecule next: Cc1c2c3ccccc3nc-2n(C)c2ccccc12
## Result 1.57 µM (inactive)

## Task Same question, O=c1[nH]c(=O)n(COCCOCc2ccccc2)cc1Nc1ccccc1 this time
## Result > 100 µM (inactive)

## Task Likewise for COCCCCCC(=O)CP(=O)(OC)OC ?
## Result > 100 µM (inactive)

## Task Likewise for COc1ccc(-n2c(N)c(C#N)c(C#N)c2-c2ccco2)cc1 ?
## Result > 100 µM (inactive)

## Task Try this molecule too: CCC(C)c1cccc(C)c1NC(=O)C(=O)Cc1nc2ccccc2s1 (stereo not given)
## Result > 100 µM (inactive)

## Task Do the same for CSc1ccc(NC(=O)C2CCCCC2C(=O)O)cc1 (stereo not given) please
## Result > 100 µM (inactive)

## Task Same for COCCCN(Cc1cc(OC)c(OC)c(OC)c1)C(=S)Nc1cccc(Cl)c1
## Result 29 µM (inactive)

## Task Same question, CCOC(=O)c1csc(-c2cn(C)c3c2C(=O)C(OC)=CC3=O)n1 this time
## Result 17.8 µM (inactive)

## Task Ok, now Fc1sc2c(c1F)C1CCC2C1 (stereo not given)
## Result > 100 µM (inactive)

## Task Also CC1=C(C(=O)CC(=O)C(=O)Nc2cccc(C)c2C)Sc2ccccc2N1 ?
## Result > 100 µM (inactive)

## Task Field entry: O=C1Nc2ccc([N+](=O)[O-])cc2/C1=N/NC(=S)Nc1ccccc1
## Result 5.05 µM (inactive)

## Task Let us now turn to C/C=C1/C=CC2c3[nH]c4ccccc4c3CCN2C1 (stereo not given)
## Result > 400 µM (inactive)

## Task Follow-up entry: O=C(NN1C(=O)C(Cl)C1c1cccc(Cl)c1)c1ccccc1O (stereo not given)
## Result > 100 µM (inactive)
